Assay: Stability in solid state form (HPLC assay)
Assay type: physicochemical
Settings: five weeks at 25° C., read-out: decomposition
measurementName: degraded at 840 h
Don't forget the unit after the number, please.

What does the record list as degraded at 840 h for CC(O)(C=CC1CC=CC(=O)O1)C(CC(O)C=CC=CC=CCO)OP(=O)(O)O (stereo not shown) ?
31%

---

Assay: Stability in aqueous solution (HPLC assay)
Assay type: physicochemical
Details: aqueous solution, Table 2, aqueous solution 15 mg/mL, 25° C., 14 days; read-out: % CL-1565-A Remaining
measurementName: remaining at 336 h (%)
Reply with just the number (in %).

What does the record list as remaining at 336 h for CC(O)(C=CC1CC=CC(=O)O1)C(CC(O)C=CC=CC=CCO)OP(=O)(O)O (stereo not shown) ?
55
